system: Enterobacter cloacae; assay: In vitro minimum inhibitory concentration for Enterobacter cloacae (ATCC-27508) by agar dilution method; type: functional; details: Enterobacter cloacae; read-out: MIC
measured.attribute: MIC (µg/mL)

A = C/C=C/[n+]1c(N)cc(N)nc1SCC1=C(C(=O)[O-])N2C(=O)C(NC(=O)/C(=N\OC(C)(C)C(=O)O)c3cnc(N)s3)C2SC1 (configuration not stated)
B = CC(C)(O/N=C(\C(=O)NC1C(=O)N2C(C(=O)O)=C(CSc3nc(O)cc(O)n3)CSC12)c1cnc(N)s1)C(=O)O (configuration not stated)
C = C[n+]1cccnc1SCC1=C(C(=O)[O-])N2C(=O)C(NC(=O)/C(=N\OC(C)(C)C(=O)O)c3cnc(N)s3)C2SC1 (configuration not stated)
Please put the entries in order of rising MIC. Dear reader, please state the labels in the requested order. A, C, B

P = CC(C)(O/N=C(\C(=O)NC1C(=O)N2C(C(=O)[O-])=C(CSc3nc(N)cc(N)[n+]3N)CSC12)c1cnc(N)s1)C(=O)O (configuration not stated)
Q = CC(C)(O/N=C(\C(=O)NC1C(=O)N2C(C(=O)O)=C(CSc3nccc(N)n3)CSC12)c1cnc(N)s1)C(=O)O (configuration not stated)
Endpoint returns whichever of P and Q has the numerically higher MIC. Lab log: write the label of the selected item as the result. Q

Origin of the recorded values: ChEMBL document CHEMBL1127395
